Target: Man(a1-2)Man(a1-3)[Man(a1-6)]Man(a1-6)[Man(a1-2)Man(a1-3)]Man(b1-4)GlcNAc(b1-4)GlcNAc
Assay: glycan array binding signal (z-score within array); higher = stronger binding
Settings: glycan notation: IUPAC condensed, linker removed
About 410 targets per protein were measured; listed, in parts, are those with the strongest signals and a random draw of the rest.
glycan array binding signal (z-score) below -0.3 gives false; glycan array binding signal (z-score) at or above it gives true.

Solved entries (count: 8):
BINDER	CLASS_ASSIGNMENT
Mermaid1 (Stilbonema majum) (protein) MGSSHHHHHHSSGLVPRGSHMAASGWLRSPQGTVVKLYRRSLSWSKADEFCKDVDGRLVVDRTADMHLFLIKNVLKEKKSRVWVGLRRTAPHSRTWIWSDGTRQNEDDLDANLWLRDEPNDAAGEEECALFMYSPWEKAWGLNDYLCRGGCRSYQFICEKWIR	true
LCA (Lens culinaris), P02870 (protein) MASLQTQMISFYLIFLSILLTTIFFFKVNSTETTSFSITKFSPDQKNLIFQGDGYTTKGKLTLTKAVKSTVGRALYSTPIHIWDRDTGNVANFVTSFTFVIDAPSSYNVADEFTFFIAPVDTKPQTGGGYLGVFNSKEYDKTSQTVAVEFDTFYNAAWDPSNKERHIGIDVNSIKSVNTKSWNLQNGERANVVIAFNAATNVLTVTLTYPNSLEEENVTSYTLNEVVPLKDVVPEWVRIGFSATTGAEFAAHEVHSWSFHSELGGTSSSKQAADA	true
CD34 (Homo sapiens), P28906 (protein) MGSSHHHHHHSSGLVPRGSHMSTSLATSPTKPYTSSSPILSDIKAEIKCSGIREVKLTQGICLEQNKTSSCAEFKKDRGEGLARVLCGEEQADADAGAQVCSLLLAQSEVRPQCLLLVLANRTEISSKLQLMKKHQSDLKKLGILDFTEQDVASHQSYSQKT	false
Microvirin-2 (Microcystis aeruginosa) (protein) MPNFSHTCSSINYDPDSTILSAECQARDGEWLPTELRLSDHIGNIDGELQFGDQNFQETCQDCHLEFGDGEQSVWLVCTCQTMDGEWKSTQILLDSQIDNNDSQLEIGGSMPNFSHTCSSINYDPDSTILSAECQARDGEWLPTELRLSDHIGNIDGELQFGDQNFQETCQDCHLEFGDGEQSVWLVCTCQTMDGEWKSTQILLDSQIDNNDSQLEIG	true
NPA (Narcissus pseudonarcissus), C0HM45 (protein) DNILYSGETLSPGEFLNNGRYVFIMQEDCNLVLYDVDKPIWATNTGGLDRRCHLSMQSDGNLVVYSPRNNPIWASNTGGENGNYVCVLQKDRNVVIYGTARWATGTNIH	true
CTLX (Homo sapiens), Q6UXS0 (protein) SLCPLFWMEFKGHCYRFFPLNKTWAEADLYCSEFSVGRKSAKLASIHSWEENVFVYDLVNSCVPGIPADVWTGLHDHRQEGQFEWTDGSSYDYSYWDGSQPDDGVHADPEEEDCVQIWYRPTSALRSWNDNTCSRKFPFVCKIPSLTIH	false
NKR-PIC (Mus musculus) (protein) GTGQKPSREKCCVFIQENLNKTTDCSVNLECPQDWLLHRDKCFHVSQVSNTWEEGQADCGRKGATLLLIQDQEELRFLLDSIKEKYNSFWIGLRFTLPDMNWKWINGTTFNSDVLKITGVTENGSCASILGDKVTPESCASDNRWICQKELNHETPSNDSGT	false
CC1G-11630 (Coprinopsis cinerea), A8P462 (protein) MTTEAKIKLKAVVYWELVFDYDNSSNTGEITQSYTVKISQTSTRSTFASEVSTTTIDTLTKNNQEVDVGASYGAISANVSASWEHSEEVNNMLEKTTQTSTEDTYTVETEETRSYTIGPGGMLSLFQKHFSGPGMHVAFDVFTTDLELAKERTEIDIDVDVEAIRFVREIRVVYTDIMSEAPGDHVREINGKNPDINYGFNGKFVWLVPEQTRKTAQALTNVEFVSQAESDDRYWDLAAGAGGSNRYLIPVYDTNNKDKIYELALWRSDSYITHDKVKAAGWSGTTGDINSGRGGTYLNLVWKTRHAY	true

Is the recorded value of glycan array binding signal (z-score) equal to or greater than -0.3 for this binder? Banana lectin (Musa acuminata) (protein) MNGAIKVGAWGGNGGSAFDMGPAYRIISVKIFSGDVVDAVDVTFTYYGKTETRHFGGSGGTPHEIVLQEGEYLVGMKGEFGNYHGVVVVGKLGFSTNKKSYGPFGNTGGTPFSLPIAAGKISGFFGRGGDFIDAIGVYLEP
true

Dear colleague, could you confirm whether CVN (Nostoc ellipsosporum), P81180 (protein) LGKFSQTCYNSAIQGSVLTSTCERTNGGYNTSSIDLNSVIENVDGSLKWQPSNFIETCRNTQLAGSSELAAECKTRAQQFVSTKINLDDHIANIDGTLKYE has glycan array binding signal (z-score) at or above -0.3?
true

Check the entry PFL (Pseudomonas fluorescens) (protein) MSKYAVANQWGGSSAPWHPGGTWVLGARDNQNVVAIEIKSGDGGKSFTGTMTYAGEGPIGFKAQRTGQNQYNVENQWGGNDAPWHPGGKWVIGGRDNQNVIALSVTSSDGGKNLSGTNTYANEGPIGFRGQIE : does glycan array binding signal (z-score) equal or exceed -0.3?
true

Exam item: decide whether the reported glycan array binding signal (z-score) for Banana lectin (Musa acuminata) (protein) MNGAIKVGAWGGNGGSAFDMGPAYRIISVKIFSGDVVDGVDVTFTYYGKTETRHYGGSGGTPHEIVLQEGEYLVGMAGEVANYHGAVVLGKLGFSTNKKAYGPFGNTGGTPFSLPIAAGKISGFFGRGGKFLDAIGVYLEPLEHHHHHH is at least -0.3.
true
